# Tested on: NIH3T3
# ASSAY_REMARKS: GSK_TCAKS: pIC50 NIH 3T3 cell line viability assay using luminiscence. Tissue culture surface treated assay plates (1536-well) were used. […] The 100% cells survival control was determined exposing the host-cells to a 0.5% DMSO concentration, whereas the 100% toxicity control was achieved by seeding the cells in presence of Amphotericin B at 50uM. Plates were incubated for four days at 37C, 5% CO2. The assay readout was developed by addition of 5uL of CellTiter-Glo Reagent following the manufacturer's instructions. Luminiscence was measured using a ViewLux.
# Assay type: functional, cell-based
# EXPERIMENTAL_CONTEXT: Mus musculus, NIH3T3, 96 h
RESULT_TYPE: pIC50
Scale explanation: pIC50 corresponds to minus log10 of a concentration expressed in moles per litre.

Worked examples, 8 compounds total:
CS(=O)(=O)c1cccc(-c2cnc(N)c3c(-c4ccc(CO)cc4)csc23)c1 : 4.60
CC(=O)Nc1ccc(-c2noc(CC3CCCN(Cc4cccc(F)c4C)C3)n2)cc1 (configuration not stated) : 4.60
O=c1cc(NCCCNC2CCOc3c(I)cc(Cl)cc32)[nH]c2ccccc12 (configuration not stated) : 4.60
O=C(NCCc1cccnc1)c1csc(-c2ccccc2)n1 : 4.30
Cc1ccccc1OCC(=O)N1CCCN(c2cccnn2)CC1 : 4.30
Cc1ccc2sc(NC(=O)Cn3cnc([N+](=O)[O-])n3)nc2c1 : 4.30
CC(C)c1cc(C(=O)N2CCCC(c3cc4ncccc4[nH]3)C2)on1 (configuration not stated) : 4.70
CC(C)Oc1cccc(N2CCC(C(=O)N3CCCN(C(C)C)CC3)CC2)c1 : 4.50

I have this compound here, CC1=C(C(=O)Nc2ccc(Cl)cc2)C(c2ccncc2)n2ncc(C(=O)Nc3ccccc3)c2N1 (configuration not stated) , and I need its recorded pIC50.
4.50

I have this compound here, O=c1ccc2ccc(F)c3c2n1C[C@H]3CN1CCC(NCc2cc3ccccc3o2)CC1 , and I need its recorded pIC50.
4.70

---

Reported IC50 at 48 h is given for each of the following compounds.
# ASSAY_REMARKS: GSK_TCAKS: pIC50 HepG2 human cell line viability assay using luminiscence. […] Seeding density was checked to ensure that new mono-layers were not more than 50% confluent at the time of harvesting. Cell suspension was added to 500 mL of the same medium at a final density of 1.2 * 10^5 cells/mL. This cell suspension was dispensed (25 uL, 3000 cells per well) into 384-well clear-bottom plates using a Multidrop Combi dispenser. Prior to addition of the cell suspension, the screening compounds (250 nL) were pre-dispensed into the plates with an Echo liquid handler. Plates were incubated for 48 h at 37C, 5% CO2. After incubation, plates equilibrated at room temperature for 30 min before proceeding to develop the luminescent signal. The signal developer, CellTiter-Glo Reagent, was allowed to equilibrate at room temperature for 30 min and added to the plates (25uL per well) using a Multidrop Combi dispenser. Plates were left for 10 min at room temperature for stabilization and then read using a ViewLux.
# Assay type: toxicity, cell-based

Worked examples, 10 compounds total:
O=c1ccc2ccc(F)c3c2n1C[C@H]3CN1CCC(NCc2cc3ccccc3o2)CC1 : 39.8 µM
N#Cc1cnc(Nc2cccc(CCN3CCOCC3)c2)nc1Nc1ccccc1C(N)=O : 25.1 µM
NS(=O)(=O)c1ccc(Nc2nccc(-c3cnn4ncccc34)n2)cc1 : > 100 µM
CCN(CC)c1nc(Nc2ccncc2)nc2ccccc12 : 50.1 µM
Cc1ccc(S(=O)(=O)Nc2ccc(CN3CCN(C(=O)c4cccc(C#N)c4)CC3)cc2)cc1 : > 100 µM
N#Cc1ccc(Br)cc1[N+](=O)[O-] : 20 µM
OC[C@@H](Nc1nccc(-c2c(-c3ccc(F)cc3)ncn2C2CCNCC2)n1)c1ccccc1 : 100 µM
Cn1c(CN2CCN(c3ncc(C(F)(F)F)cc3Cl)CC2)nc2ccncc21 : > 100 µM
CN(C)S(=O)(=O)c1ccc(Cl)c(C(=O)Nc2nc(-c3ccccn3)cs2)c1 : > 100 µM
Clc1ccc(CN2CCN(C3=NCCN3)CC2)cc1Cl : 63.1 µM

I have this compound here, O=C(NC1C(=O)N(c2ccccc2)C1c1cccnc1)c1ccc(Cl)s1 (configuration not stated) , and I need its recorded IC50 at 48 h.
> 100 µM

I have this compound here, CN(C)c1ccc(-c2cc3nccnc3c(OC[C@H]3CCCNC3)n2)cn1 , and I need its recorded IC50 at 48 h.
63.1 µM

I have this compound here, COc1ccc(C(=O)N2CCC(Nc3cccnc3)C2)c(OC)n1 (configuration not stated) , and I need its recorded IC50 at 48 h.
> 100 µM

I have this compound here, COc1ccc(C)cc1-c1csc(NC(=O)C(C)n2ccnc2)n1 (configuration not stated) , and I need its recorded IC50 at 48 h.
> 100 µM

---

# Tested on: Trypanosoma brucei brucei
# ASSAY_REMARKS: GSK_TCAKS: pIC50 Trypanosoma brucei viability assay using luminiscence. Assay plates (1536-well) were prepared. T. brucei cultures were harvested and counted in a CASY cell counter. A parasite suspension was prepared at a final concentration of 5 * 10^4 cells/mL in complete HMI9 medium and 6uL was dispensed to all wells containing compounds using a Multidrop Combi dispenser. 6uL of HMI9 media with 0.4% DMSO were dispensed to control columns. Plates were incubated for 24 h at 37C, 5% CO2 then tempered for 10 min at room temperature. ATP content was quantified by adding 4 uL of CellTiter-Glo Reagent (Promega) according to the manufacturer's instructions. Luminescence was measured using a ViewLux.
# Assay type: functional, organism-based
# EXPERIMENTAL_CONTEXT: Lister 427, CASY
RESULT_TYPE: IC50 (µM)
Report the value in µM with no unit label.

Worked examples, 5 compounds total:
CCn1c(NC(=O)Cc2ccc(F)cc2)nc2ccccc21 : 5.01
COc1ccc2ncc(=O)n(CCN3CCC(NCc4ccc(-c5cccs5)cc4)CC3)c2n1 : 6.31
Cc1ccc(S(=O)(=O)Nc2ccc(CN3CCN(C(=O)c4cccc(C)c4)CC3)cc2)cc1 : 0.501
Cc1cc(=O)n2nc(Oc3ccc(C#N)cc3Cl)sc2n1 : 0.316
N#Cc1nc(C=Cc2ccccc2)oc1NCc1cccnc1 : 31.6

Now consider a different compound.
I have this compound here, CCc1nn(-c2ncc(F)c(NC(C)C)n2)c(N)c1C1CCCCC1 , and I need its recorded IC50.
15.8

---

Reported IC50 at 48 h is given for each of the following compounds.
# ASSAY_REMARKS: GSK_TCAKS: pIC50 HepG2 human cell line viability assay using luminiscence. […] Seeding density was checked to ensure that new mono-layers were not more than 50% confluent at the time of harvesting. Cell suspension was added to 500 mL of the same medium at a final density of 1.2 * 10^5 cells/mL. This cell suspension was dispensed (25 uL, 3000 cells per well) into 384-well clear-bottom plates using a Multidrop Combi dispenser. Prior to addition of the cell suspension, the screening compounds (250 nL) were pre-dispensed into the plates with an Echo liquid handler. Plates were incubated for 48 h at 37C, 5% CO2. After incubation, plates equilibrated at room temperature for 30 min before proceeding to develop the luminescent signal. The signal developer, CellTiter-Glo Reagent, was allowed to equilibrate at room temperature for 30 min and added to the plates (25uL per well) using a Multidrop Combi dispenser. Plates were left for 10 min at room temperature for stabilization and then read using a ViewLux.
# Assay type: toxicity, cell-based
Report the value in µM with no unit label.

Cc1cc(NC(=O)C2CCCCC2)n(-c2nc3c(c(=O)[nH]2)CCC3)n1 : 50.1
NC(=O)c1cc(F)ccc1Nc1nc(N[C@H]2CC[C@H](O)CC2)ncc1Br : 50.1
CN(C)CCN(C)Cc1ccc(Cl)cc1NS(=O)(=O)c1ccc(Cl)c(Cl)c1 : 31.6
COc1ccc2ncc(Cl)c(CCN3CC[C@@H](NCc4cc5c(cn4)OCS5)[C@H](O)C3)c2n1 : 50.1
Cc1cc(=O)n2nc(Oc3ccc(C#N)cc3Cl)sc2n1 : 39.8

I have this compound here, O=C(Nc1nc(-c2ccccn2)cs1)N1C[C@H]2C[C@@]2(c2ccccc2)C1 , and I need its recorded IC50 at 48 h.
25.1

---

Reported pIC50 is given for each of the following molecules.
# Tested on: Leishmania donovani
# ASSAY_REMARKS: GSK_TCAKS: pIC50 Leishmania donovani Imaging: THP-1 Host Macrophages. Assay plates (384-well) were prepared by adding 250nL of compound to each well. For single shot assay, the final compound concentration was 5 uM. […] Automated image analysis was performed with a script developed on Acapella High Content Imaging and Analysis Software (PerkinElmer). Output: THP-1 cell count were reported for each well.
# Format: functional, organism-based, Homo sapiens
Scale explanation: pIC50 corresponds to minus log10 of a concentration expressed in moles per litre.

Worked examples, 3 molecules total:
CN(Cc1nc2ccc(C(=O)NCC3CCCCC3)cc2[nH]1)C1CCCc2cccnc21 (stereo not given) : 5.20
c1ccc2[nH]c(-c3ccc(N4CCCC4)nc3)nc2c1 : 4.50
CC(=O)Nc1ccc(-c2cnc(N)c(-c3nc4ccc(F)cc4[nH]3)c2)cc1 : 5.10

Now consider a different molecule.
What is its pIC50 for Leishmania donovani? Entry: COc1cccc(CCNC(=O)C(c2cn[nH]c2)N2CCN(c3ccc(Cl)cc3)CC2)c1 (stereo not given)
4.60
